- System: MS2 coat protein
- ASSAY DETAILS: apparent KD of MS2 coat protein; designed switch direction (-1 OFF switch, 1 ON switch): -1; higher = weaker reporter binding
- RUN PARAMETERS: Eterna round: R95; input ligand: none
Mark no (0) for apparent KD of MS2 coat protein values under 40 nM, and yes (1) for everything at or above.

See these solved cases before continuing.
* GGAAAGCAAGGAUAUACAAGGAGAAGGAGGAAAGUAAAAGGACAUGAGGAUCACCCAUGUAGAAGGUGCGAGAG [JR_Exclu2_Sub039] (puzzle: Exclusion 2) | yes (1)
* ACGUGAUAUCUGUCGUUGGACAUGAGGAUCACCCAUGUGAGCUUUUUGCUCGUCUUAUAACCCGGUGACAGACCUUC [Aatbebeed] (puzzle: Sensor v3, turn-off variant 1) | no (0)
* UUAUUACAAGCAAGAUCCUACAUGAGGAUCACCCAUGUGCUCGUCUUAUAAGGUACAGUGACGAAAGUCACAGUACC [Sensor 3, v1 - 00] (puzzle: Sensor v3, turn-off variant 1) | yes (1)

Is apparent KD of MS2 coat protein for GUAGAGUAAGGAUAUGCAGAAUAGGAUAGAAUGGUUAGAAUGUAGAAGGUACAUGAGGAUCACCCAUGUAAUGU [Excluse me!!!! 10 - Jieux - Exclusion 4] (puzzle: Exclusion 4) at or above 40 nM?
no (0)

Is apparent KD of MS2 coat protein for CUAGUCCGAGGAUAUAUAUUGUGAUACAUGAGGAUCACCCAUGUAAUAAUAUGGAAAUAAAUAGAAGGCGGACUAG [Mat - Exclusion 5 - JL mod - D53] (puzzle: Exclusion 5) at or above 40 nM?
no (0)

Is apparent KD of MS2 coat protein for GACUGAACGUGGUCUGGUUACAUGAGGAUCACCCAUGUAGGUCUAAGAACAUGUCUUUUGUACGCUCGUCUUAUAUA [JR_SV3TOV1_Sub066] (puzzle: Sensor v3, turn-off variant 1) at or above 40 nM?
no (0)

Is apparent KD of MS2 coat protein for AAAUAACAAGCAAGAUCCUACAUGAGGAUCACCCAUGUGCUCGUCUUAUAAAGUACUAUCACGAAAGUGAUAGUACA [Sensor 3, v1 - 11] (puzzle: Sensor v3, turn-off variant 1) at or above 40 nM?
yes (1)

Is apparent KD of MS2 coat protein for AGUAACCGUCACGAAAGUGAUGGUUACACAAGUGUAAUAACAUGAGGAUCACCCAUGUCCUCAUUUGCUCGUCUUAU [Sensor 3 - 36] (puzzle: Sensor v3, turn-off variant 2) at or above 40 nM?
yes (1)

Is apparent KD of MS2 coat protein for GAAAAGGUAGGAUAUACGAAAAAAAAGGGUACAAAAAAAACACAUGAGGAUCACCCAUGUAGAAGGACCAAAAG [salish99_ex2_r3_063] (puzzle: Exclusion 2) at or above 40 nM?
no (0)

Is apparent KD of MS2 coat protein for AAGUACUACAAGCUUAGGGACAUGAGGAUCACCCAUGUUCGUCUUAUUGAUCUAGGUACGCUGACGUACCUAGAUCU [Mat - Sensor v3 - turn-off var 1 - JL Mod - D9] (puzzle: Sensor v3, turn-off variant 1) at or above 40 nM?
no (0)

Is apparent KD of MS2 coat protein for GAUUAUGCGAGCUUUAGGGACAUGAGGAUCACCCAUGUUCGUCUUAUUGAUCUAAGUGCACUAACAUACCUAAAUCU [JMF 29] (puzzle: Sensor v3, turn-off variant 1) at or above 40 nM?
no (0)

Is apparent KD of MS2 coat protein for ACUUGCGAUAUGCUCGUCUUAUUUUUGUUGACGUUCUAUACAUGAGGAUCACCCAUGUUUUGUUCCUUGUGCUGGUA [JR_SV3TOV2_Sub072] (puzzle: Sensor v3, turn-off variant 2) at or above 40 nM?
yes (1)

Is apparent KD of MS2 coat protein for GGUUGACAUGAGGAUCACCCAUGUGAGGAUAUGCGAGAGAAAAAAGUGAGGAAGUAAAGCAGAAGGCGCUGUCG [salish99-ex1_r3_004] (puzzle: Exclusion 1) at or above 40 nM?
yes (1)

Is apparent KD of MS2 coat protein for AAGACCUUUGUCAGGAUAUCAAGGCAAUUCGCCGGUGAGAAGGGACAUGAGGAUCACCCAUGUAAAGAAAAGAA [Rausedlave] (puzzle: Brourd's mod of Exclusion 4) at or above 40 nM?
no (0)

====

- System: MS2 coat protein
- ASSAY DETAILS: apparent KD of MS2 coat protein; designed switch direction (-1 OFF switch, 1 ON switch): -1; higher = weaker reporter binding
- RUN PARAMETERS: input ligand: FMN 200 uM
Mark 0 for apparent KD of MS2 coat protein values under 30 nM, and 1 for everything at or above.

Is apparent KD of MS2 coat protein for UAUCAUCAUGUAGGAUAUGCGUGGCGAAGCUAUGCAGAAGGACAUGAGGAUCACCCAUGUUCUUGCGUCUGCGUACAGAUGCAA [Mat - Exclusion NG 1 - Mod of JL - D71] (Eterna round: R96, puzzle: Exclusion NG 1) at or above 30 nM?
1

====

The entries below come with measured apparent KD of MS2 coat protein values attached.
- System: MS2 coat protein
- ASSAY DETAILS: apparent KD of MS2 coat protein; designed switch direction (-1 OFF switch, 1 ON switch): -1; higher = weaker reporter binding
- RUN PARAMETERS: input ligand: FMN 200 uM
// return numeric value only (unit: µM, not printed)

• CGGGUCUGAGGAUAUCCACCCUCAUACAUGAGGAUCACCCAUGUUCACCCUUGGGUUCCCGGAGAAGGCAGUUUUC [Megrez-3.6] (Eterna round: R97, puzzle: Exclusion 5) = 0.275
• UCUUGCUGGCGAGGAUAUCCUGUGCGGUUCCGGCUCGUGUCUGUUACAUGAGGAUCACCCAUGUGGGAGAAGGUGUCUGUGGCC [Design 97] (Eterna round: R96, puzzle: Exclusion NG 2) = 0.0186

Moving on to the next sequence.
Find the measured apparent KD of MS2 coat protein of UGCGAGUAAGGAUAUUCGCGACCACCCACAAGGGCGGUCGAGAAGAAGGUACUUGAGGAUCACCCAAGUCCUAA [Inraindi] (Eterna round: R97, puzzle: Exclusion 4) and report it.
0.0955

====

The entries below come with measured apparent KD of MS2 coat protein values attached.
- Tested on: MS2 coat protein
- ASSAY DETAILS: apparent KD of MS2 coat protein; designed switch direction (-1 OFF switch, 1 ON switch): -1; higher = weaker reporter binding
- RUN PARAMETERS: Eterna round: R95; input ligand: microRNA oligo, concentration not stated
// return numeric value only (unit: nM, not printed)

* AAAUUCUGAGGAUAUCGAUGUUUGUACAUGAGGAUCACCCAUGUCCUUUUUAUUUAAUCCCGAGAAGGCAGUGUAU [JR_E5_Sub098] (puzzle: Exclusion 5) | 32.6

Find the measured apparent KD of MS2 coat protein of GCCUAAGCAGGAUAUUCAAUAUGUCACAUGAGGAUCACCCAUGUCCAGCGAAAGCUGGAGGGAGAAGGGCUUAGGC [Mat - Exclusion 5 - Eli mod - D100] (puzzle: Exclusion 5) and report it.
101

Find the measured apparent KD of MS2 coat protein of CUUCGGGCAGGAUAUGCUGUUUGUGACAUGAGGAUCACCCAUGUGAUGCAGUUUGGGUGUGCAGAAGGGCCUGAGU [JR_E5_Sub031] (puzzle: Exclusion 5) and report it.
43.7

Find the measured apparent KD of MS2 coat protein of GUAAUACAUGAGGAUCACCCAUGUAAGGAUAUGCUAGCGGUCGGCUGACUGACUGCUAGCAGAAGGUACAUGAU [Mat - Mod of JL D77] (puzzle: Exclusion 1) and report it.
87.2

Find the measured apparent KD of MS2 coat protein of CACUUGGCAGGAUAUGCAAUUUUAGACAUGAGGAUCACCCAUGUGAUCAUUCCAUAUUAUGCAGAAGGGCCUAAAC [JR_E5_Sub050] (puzzle: Exclusion 5) and report it.
214

====

The entries below come with measured apparent KD of K4 kissing-loop reporter values attached.
- System: K4 kissing-loop RNA reporter;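 further: bound reporter read as fluorescence of individual clusters on recovered sequencing chips by microscopy, with normalized cluster intensities fitted with a binding model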
- ASSAY DETAILS: apparent KD of K4 kissing-loop reporter; higher = weaker reporter binding
- RUN PARAMETERS: Eterna round: R107; input ligand: FMN 200 uM
// return numeric value only (unit: nM, not printed)

* GCCGUACGCAUGGAUACCAGUCAAGAUCAGUGAUGUUGAUCUUUUAUAGAGCCUUCAUUAGACCCUUGGCAGCCAUGCGUACGGC | 429
* GGAUAGGACAAAGGAUAUGGGCUAGGCAAGAAUAACUUGUCUAGCAAAUCCAUGAGGAGUGAUGUUCCAGAAGGUUGUCCUAUCG [FmnBX 1 A11+U75] | 624

Find the measured apparent KD of K4 kissing-loop reporter of UGUGUUUACCUGACUCAGUGAUGUUGAGAAGGAGCGUGCGAAAGCACAGGUAGGUCGCUCAAUCCUUAAUCAGGUGAGCACUAAA [#SwitchBubble 13 #K4Early] and report it.
394

Find the measured apparent KD of K4 kissing-loop reporter of UUAGCAGUAUACUGCAAGACCUAUACUGAUACCAGAGCCUAUAGGCUCCCUUGGCAGCGGAUCGAGUGAUGUUCGUAAGGUCAUU [AK4.3 SS Theophylline A] and report it.
651

Find the measured apparent KD of K4 kissing-loop reporter of AGCGAGUGAUGUUCGCUGAUCAUGUGAAGUUAGGAUAUAUACUUGCAUAGAAGGAACUAUUACAUGACAUUAGAGGCAGUAGUUC [FMN A SS t7b] and report it.
165
